- MEASUREMENT NOTES: Blood plasma level after oral administration, male C57/BL6 mice
- Format: in vivo
- MEASUREMENT CONTEXT: mouse, plasma, po, about 25 mg/kg orally as suspension in 0.5% HEC, sampling 0.25-8 hours, read-out: exposure, measured as AUC=area under the curve

>  <RECORD SMILES>
CNc1nccc(-c2cc3cc(C(=O)N[C@@H](CN(c4ccccc4)c4ccccc4)c4n[nH]c(=O)o4)ccc3[nH]2)n1

>  <AUC [ng·h/mL]>
5400

$$$$

----------
- TARGET SYSTEM: IκB kinase (Homo sapiens, UniProt O14920+O15111)
- Construct: endogenous in cells; ammonium sulfate cut, Superose-6 fractions at 670 kDa)
- Sequence (O14920 whole entry): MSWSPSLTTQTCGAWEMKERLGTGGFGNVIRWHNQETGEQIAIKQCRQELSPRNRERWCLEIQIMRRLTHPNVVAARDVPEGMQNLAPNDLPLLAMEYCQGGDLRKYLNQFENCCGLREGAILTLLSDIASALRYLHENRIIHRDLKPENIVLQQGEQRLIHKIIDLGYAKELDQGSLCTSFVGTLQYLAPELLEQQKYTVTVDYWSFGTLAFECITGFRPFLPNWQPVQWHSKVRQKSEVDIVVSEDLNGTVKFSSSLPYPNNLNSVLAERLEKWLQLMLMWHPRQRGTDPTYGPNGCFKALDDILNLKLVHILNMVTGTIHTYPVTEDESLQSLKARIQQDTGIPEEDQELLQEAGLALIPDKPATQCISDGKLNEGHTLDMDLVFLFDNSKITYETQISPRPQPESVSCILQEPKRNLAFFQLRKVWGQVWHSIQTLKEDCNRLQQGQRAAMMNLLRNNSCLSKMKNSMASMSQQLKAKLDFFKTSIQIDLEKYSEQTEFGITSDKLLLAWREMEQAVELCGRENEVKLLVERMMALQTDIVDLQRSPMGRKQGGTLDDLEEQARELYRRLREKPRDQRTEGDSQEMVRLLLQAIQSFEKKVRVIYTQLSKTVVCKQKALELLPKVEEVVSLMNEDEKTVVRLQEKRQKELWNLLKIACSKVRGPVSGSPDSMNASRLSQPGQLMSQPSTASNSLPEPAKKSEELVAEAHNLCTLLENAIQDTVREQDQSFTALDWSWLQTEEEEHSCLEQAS
- Sequence (O15111 whole entry): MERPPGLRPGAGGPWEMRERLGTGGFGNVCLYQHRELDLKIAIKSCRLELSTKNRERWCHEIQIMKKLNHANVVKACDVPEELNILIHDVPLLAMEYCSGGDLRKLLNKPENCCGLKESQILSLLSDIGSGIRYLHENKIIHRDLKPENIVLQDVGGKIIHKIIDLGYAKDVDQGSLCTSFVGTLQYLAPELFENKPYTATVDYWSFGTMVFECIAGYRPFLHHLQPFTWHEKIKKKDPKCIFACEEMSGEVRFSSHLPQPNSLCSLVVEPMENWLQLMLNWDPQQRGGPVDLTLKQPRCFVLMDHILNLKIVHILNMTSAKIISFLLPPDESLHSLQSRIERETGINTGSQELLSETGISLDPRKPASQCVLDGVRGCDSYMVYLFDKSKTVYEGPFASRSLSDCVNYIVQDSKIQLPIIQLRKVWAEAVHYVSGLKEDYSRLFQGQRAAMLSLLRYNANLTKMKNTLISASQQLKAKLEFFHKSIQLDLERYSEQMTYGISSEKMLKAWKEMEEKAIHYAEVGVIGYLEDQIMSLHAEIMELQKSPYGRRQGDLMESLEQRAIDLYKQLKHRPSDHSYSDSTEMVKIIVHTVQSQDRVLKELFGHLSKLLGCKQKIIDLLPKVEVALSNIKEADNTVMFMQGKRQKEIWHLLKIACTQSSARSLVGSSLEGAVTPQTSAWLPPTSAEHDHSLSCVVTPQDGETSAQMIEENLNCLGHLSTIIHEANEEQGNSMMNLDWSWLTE
- Sequence (Q9Y6K9 whole entry partner): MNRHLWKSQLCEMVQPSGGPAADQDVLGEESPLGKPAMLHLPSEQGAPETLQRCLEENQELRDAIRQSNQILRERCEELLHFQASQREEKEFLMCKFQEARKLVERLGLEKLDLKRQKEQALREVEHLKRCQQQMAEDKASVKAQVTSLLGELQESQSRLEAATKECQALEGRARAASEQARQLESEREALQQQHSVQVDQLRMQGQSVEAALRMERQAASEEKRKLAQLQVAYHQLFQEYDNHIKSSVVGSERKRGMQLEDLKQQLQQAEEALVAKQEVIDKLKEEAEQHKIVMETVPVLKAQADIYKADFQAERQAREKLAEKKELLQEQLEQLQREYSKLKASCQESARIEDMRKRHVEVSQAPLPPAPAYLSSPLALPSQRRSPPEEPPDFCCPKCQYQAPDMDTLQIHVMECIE
- MEASUREMENT NOTES: IκB kinase ELISA
pIC50: −log10 of the molar value.
OUTCOME MEASURE: pIC50

>  <COMPOUND>
CNc1nccc(-c2nc3cc(C(=O)NC(CN(c4ccccc4)c4ccccn4)C(N)=O)ccc3[nH]2)n1 (stereo not shown) [Example 67]

>  <REPORTED RESULT>
8.70

$$$$
>  <COMPOUND>
CNc1nccc(-c2nc3cc(C(=O)N[C@@H](CN(c4ccccc4)c4ccccc4)C(N)=O)ccc3[nH]2)n1 [Example 63]

>  <REPORTED RESULT>
8.52

$$$$
>  <COMPOUND>
CNc1nccc(-c2cc3cc(C(=O)N[C@@H](CN(c4ccccc4)c4ccccn4)C(=O)NOC)ccc3[nH]2)n1 [Example 43]

>  <REPORTED RESULT>
9.10

$$$$
>  <COMPOUND>
CNc1nccc(-c2cc3cc(C(=O)NC(CN(c4ccc(F)cc4)c4ccccn4)C(N)=O)ccc3[nH]2)n1 (stereo not shown) [Example 30]

>  <REPORTED RESULT>
7.30

$$$$
>  <COMPOUND>
CNc1nccc(-c2cc3cc(C(=O)NC(CN(c4ccccc4)c4ncccn4)C(N)=O)ccc3[nH]2)n1 (stereo not shown) [Example 47]

>  <REPORTED RESULT>
8.22

$$$$
>  <COMPOUND>
NC(=O)C(CN(c1ccc(F)cc1)c1ccccn1)NC(=O)c1ccc2[nH]c(-c3ccnc(N)n3)cc2c1 (stereo not shown) [Example 35]

>  <REPORTED RESULT>
8.00

$$$$
>  <COMPOUND>
CNc1nccc(-c2cc3cc(C(=O)N[C@@H](CN(c4ccccc4)c4ccccn4)c4n[nH]c(=O)o4)ccc3[nH]2)n1 [Example 33]

>  <REPORTED RESULT>
7.92

$$$$
>  <COMPOUND>
CNc1nccc(-c2cc3cc(C(=O)NC(CN(c4ccccc4)c4ncccn4)C(=O)NCCO)ccc3[nH]2)n1 (stereo not shown) [Example 49]

>  <REPORTED RESULT>
7.46

$$$$
>  <COMPOUND>
CNc1nccc(-c2cc3cc(C(=O)NC(CN(c4ccc(F)cc4)c4ccccn4)c4nnc[nH]4)ccc3[nH]2)n1 (stereo not shown) [Example 36]

>  <REPORTED RESULT>
8.30

$$$$
>  <COMPOUND>
CNc1nccc(-c2cc3cc(C(=O)N[C@@H](CN(c4ccccc4)c4nccs4)C(N)=O)ccc3[nH]2)n1 [Example 42]

>  <REPORTED RESULT>
8.05

$$$$
>  <COMPOUND>
CNc1nccc(-c2cc3cc(C(=O)N[C@@H](CN(c4ccccc4)c4nccc(C(F)(F)F)n4)C(=O)O)ccc3[nH]2)n1 [Example 54]

>  <REPORTED RESULT>
8.52

$$$$
>  <COMPOUND>
CNc1nccc(-c2nc3cc(C(=O)NC(CN(c4ccccc4)c4ncccn4)C(N)=O)ccc3[nH]2)n1 (stereo not shown) [Example 65]

>  <REPORTED RESULT>
8.40

$$$$
>  <COMPOUND>
CNc1nccc(-c2cc3cc(C(=O)NC(CN(c4ccc(F)cc4)c4ncc(C)cn4)C(N)=O)ccc3[nH]2)n1 (stereo not shown) [Example 61]

>  <REPORTED RESULT>
8.22

$$$$

----------
- Tested on: protein tyrosine kinase
- MEASUREMENT NOTES: Protein tyrosine kinase assay (Upstate test kit)
- Type: biochemical
- MEASUREMENT CONTEXT: IC50 protein tyrosine kinase relative to IκB kinase; > denotes better than
# Specificity ratio listing for each entry below
OUTCOME MEASURE: Specificity ratio

>  <MOLECULE>
CNc1nccc(-c2cc3cc(C(=O)N[C@@H](CN(c4ccccc4)c4nccs4)C(N)=O)ccc3[nH]2)n1

>  <REPORTED RESULT>
>1110

$$$$
>  <MOLECULE>
CNc1nccc(-c2cc3cc(C(=O)N[C@@H](CN(c4ccccc4)c4ccccn4)C(=O)NOC)ccc3[nH]2)n1

>  <REPORTED RESULT>
>12500

$$$$
>  <MOLECULE>
CNc1nccc(-c2nc3cc(C(=O)NC(CN(c4ccccc4)c4ncccn4)C(N)=O)ccc3[nH]2)n1 (centres unmarked)

>  <REPORTED RESULT>
>2500

$$$$
>  <MOLECULE>
CNc1nccc(-c2cc3cc(C(=O)NC(CN(c4ccccc4)c4ncccn4)C(N)=O)ccc3[nH]2)n1 (centres unmarked)

>  <REPORTED RESULT>
>1665

$$$$
>  <MOLECULE>
CNc1nccc(-c2nc3cc(C(=O)NC(CN(c4ccccc4)c4ccccn4)C(N)=O)ccc3[nH]2)n1 (centres unmarked)

>  <REPORTED RESULT>
>5000

$$$$
>  <MOLECULE>
CNc1nccc(-c2cc3cc(C(=O)N[C@@H](CN(c4ccccc4)c4nccc(C(F)(F)F)n4)C(=O)O)ccc3[nH]2)n1

>  <REPORTED RESULT>
>3330

$$$$
>  <MOLECULE>
CNc1nccc(-c2cc3cc(C(=O)NC(CN(c4ccc(F)cc4)c4ccccn4)C(N)=O)ccc3[nH]2)n1 (centres unmarked)

>  <REPORTED RESULT>
>200

$$$$
>  <MOLECULE>
CNc1nccc(-c2cc3cc(C(=O)N[C@@H](CN(c4ccccc4)c4ccccn4)c4n[nH]c(=O)o4)ccc3[nH]2)n1

>  <REPORTED RESULT>
>833

$$$$

----------
- Tested on: protein tyrosine kinase
- MEASUREMENT NOTES: Protein tyrosine kinase assay (Upstate test kit)
- Format: biochemical
- MEASUREMENT CONTEXT: IC50 protein tyrosine kinase relative to IκB kinase; > denotes better than
OUTCOME MEASURE: Specificity ratio

>  <MOLECULE>
CNc1nccc(-c2cc3cc(C(=O)NC(CN(c4ccc(F)cc4)c4ccccn4)c4nnc[nH]4)ccc3[nH]2)n1 (stereo not shown)

>  <TARGET SYSTEM>
protein tyrosine kinase

>  <REPORTED RESULT>
>2000

$$$$
>  <MOLECULE>
CNc1nccc(-c2cc3cc(C(=O)NC(CN(c4ccc(F)cc4)c4ncc(C)cn4)C(N)=O)ccc3[nH]2)n1 (stereo not shown)

>  <TARGET SYSTEM>
protein tyrosine kinase

>  <REPORTED RESULT>
>1650

$$$$
>  <MOLECULE>
CNc1nccc(-c2nc3cc(C(=O)N[C@@H](CN(c4ccccc4)c4ccccc4)C(N)=O)ccc3[nH]2)n1

>  <TARGET SYSTEM>
protein tyrosine kinase

>  <REPORTED RESULT>
>1000

$$$$
>  <MOLECULE>
NC(=O)C(CN(c1ccc(F)cc1)c1ccccn1)NC(=O)c1ccc2[nH]c(-c3ccnc(N)n3)cc2c1 (stereo not shown)

>  <TARGET SYSTEM>
protein tyrosine kinase

>  <REPORTED RESULT>
>1000

$$$$

----------
- MEASUREMENT NOTES: Comparison experiment: blood plasma level after oral administration, male NMRI mice
- Type: in vivo
- MEASUREMENT CONTEXT: mouse, plasma, po; male NMRI mice, about 50 mg/kg orally as suspension in 0.5% HEC, sampling 0.25-8 hours; read-out: exposure, measured as the AUC=area under the curve
OUTCOME MEASURE: AUC (ng·h/mL)

>  <COMPOUND>
CCN(C[C@H](NC(=O)c1ccc2[nH]c(-c3ccncc3)cc2c1)C(N)=O)c1ccccc1 [comparison compound]

>  <RESULT UNITS>
ng·h/mL

>  <REPORTED RESULT>
1700

$$$$

All values here come from patent US7285560B2.
